B1: CPEB3 Ribozyme (parent)
chain: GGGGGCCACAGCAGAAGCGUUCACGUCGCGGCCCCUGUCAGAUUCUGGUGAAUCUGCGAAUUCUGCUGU

# Variants of: B1
# EXPERIMENTAL_DETAILS: self-cleavage, relative activity (ratio to wild type); higher = more cleavage; co-transcriptional
QUANTITY: self-cleavage

[[record]]
sequence_chain = "GGGGGCCACAGCAGAAGCGUUCACGUCGCGGCCCCUGUCAGAUUCUGGGGAAUCUCCGAAUUCUGCUGU [U49G G56C]"
reported_result = 0.709

[[record]]
sequence_chain = "GGGGGCCACAGCAGAAGCGUUCACGUCGCGGCCCCUUUCAGAUUCUGGUGAAUCUGCCAAUUCUGCUGU [G37U G58C]"
reported_result = 0.279

[[record]]
sequence_chain = "GGGGGCCACAGCAGAAGCGUUGACGUCGCGGCCCCUGUCAGUUUCUGGUGAAUCUGCGAAUUCUGCUGU [C22G A42U]"
reported_result = 0.194

[[record]]
sequence_chain = "GGGGGCCACAGCAGAAGCGUUCUCGUCGCGGCCCCUGUCAGAUUCUGGUGCAUCUGCGAAUUCUGCUGU [A23U A51C]"
reported_result = 0.995

[[record]]
sequence_chain = "GGGGGCCACAGCAGAAGCGUUCACGUCGCGGCCCCUGUCAGAUUCUGGUGUAUCUGCGAGUUCUGCUGU [A51U A60G]"
reported_result = 0.891

[[record]]
sequence_chain = "GGGGGCCACAGCAGAAGCGUUCACGUCGCGGCCCCUGUCAGAUUCGGGUGAAUCUGCGAAUUCUGUUGU [U46G C66U]"
reported_result = 0.986

[[record]]
sequence_chain = "GGGGGACACAGCAAAAGCGUUCACGUCGCGGCCCCUGUCAGAUUCUGGUGAAUCUGCGAAUUCUGCUGU [C6A G14A]"
reported_result = 0.128

[[record]]
sequence_chain = "GGUGGCCACAGCAGAAGCGUUAACGUCGCGGCCCCUGUCAGAUUCUGGUGAAUCUGCGAAUUCUGCUGU [G3U C22A]"
reported_result = 0.051

[[record]]
sequence_chain = "GGGGGCCACAGCGGAAGCGUUCACGUCGCGGCCCCUGUCAGAUUCUGGUGAAUCUGCCAAUUCUGCUGU [A13G G58C]"
reported_result = 0.878

[[record]]
sequence_chain = "GGGGGCCACAGCAGAAGCGUUCACGUCGGGGCCCCUGUCAGAUUCUGGUGAAUAUGCGAAUUCUGCUGU [C29G C54A]"
reported_result = 0.259

[[record]]
sequence_chain = "GGGGGCCACAGCAGAAGCGUUCACGUCGCGGCCCCUGUCAGAUUCUGGUGCAUUUGCGAAUUCUGCUGU [A51C C54U]"
reported_result = 0.928

[[record]]
sequence_chain = "GGGGGCCACAGCAGAAGCGUUCACGUCGCGGCCCCUGUCAGAUUCUGGUGAAUCAGCGAAUUCUGCUUU [U55A G68U]"
reported_result = 0.992

[[record]]
sequence_chain = "GGGGGCCACAGCAGAAGCGUUCACAUCGCGGCCCCUGUCAGAUUCUGGUGAAUCUGCGAAUUCUGCUAU [G25A G68A]"
reported_result = 0.222

[[record]]
sequence_chain = "GGGGGCCACAGCAGGAGCGUUCACGUCGCGGCCCCUGUCAGAUUCUGGUGAAUCUGCGAAAUCUGCUGU [A15G U61A]"
reported_result = 0.982

[[record]]
sequence_chain = "GGGGACCACAGCAGAAGCGUUCACGUCGCGGCCCCUGUCAGAUUCUGGUGAAUCUGCAAAUUCUGCUGU [G5A G58A]"
reported_result = 0.723

[[record]]
sequence_chain = "GGGGGCCACAGCAGAAGCGUUCACGUCGCGGCCCCUGUCUGAUUCUGGUGAGUCUGCGAAUUCUGCUGU [A40U A52G]"
reported_result = 0.832

[[record]]
sequence_chain = "GGGGGCCACAGCAGAAGCGUUCACGUCGCGGCCCCUGUCAGAUUAUGGUGAAUCUGGGAAUUCUGCUGU [C45A C57G]"
reported_result = 0.252

[[record]]
sequence_chain = "GGGGGCCACAGCAGAAUCGUUCACGUCGCGGCCCCUGUCAUAUUCUGGUGAAUCUGCGAAUUCUGCUGU [G17U G41U]"
reported_result = 0.194

[[record]]
sequence_chain = "GGGGGCCACAGCAGAAGCGUUCACGUCGCUGCCCCUGUCAGAUUCUGGUGAGUCUGCGAAUUCUGCUGU [G30U A52G]"
reported_result = 0.287

[[record]]
sequence_chain = "GGGGGCCACAGCAGAAGCGUCCACGUCGCGGCCCCUGUCAGAUUCUGGUCAAUCUGCGAAUUCUGCUGU [U21C G50C]"
reported_result = 0.849

[[record]]
sequence_chain = "UGGGGCCACAGCAGAAGCGUUCACGUCGCGGCCCCUGUCAGAUUCUGGUGAAUCUGCGAAUUCUACUGU [G1U G65A]"
reported_result = 0.0898

[[record]]
sequence_chain = "GGGGGCCACAGCAGUAGCGUUCACGUCGCGGCCCCUGUCAGAUUCUGGUGAAUCUGCGAAUUCUGCUCU [A15U G68C]"
reported_result = 0.929

[[record]]
sequence_chain = "GGGGGCCACAGCAGAAGCGUUCACGUCGCGGCCCCUGUCAGAUUCUGGUGAACGUGCGAAUUCUGCUGU [U53C C54G]"
reported_result = 0.424

[[record]]
sequence_chain = "GUGGGCCACAGCAGAAGCGUUCACGUCGCGGCCGCUGUCAGAUUCUGGUGAAUCUGCGAAUUCUGCUGU [G2U C34G]"
reported_result = 0.0441

[[record]]
sequence_chain = "GGGGGCCACAGCAGAAGCUUUCACGUCGCGGCCCCUGUCAGAUUCUGGUGAAUCUGCGAAAUCUGCUGU [G19U U61A]"
reported_result = 0.217

[[record]]
sequence_chain = "GGGGGCCACAGCAGGAGCGUUCACGUCGCGGCCCCUGUCAGAUUCUGGUGAAUCUACGAAUUCUGCUGU [A15G G56A]"
reported_result = 0.944

[[record]]
sequence_chain = "GGGGGCCACAGCACAAGCGUUCACUUCGCGGCCCCUGUCAGAUUCUGGUGAAUCUGCGAAUUCUGCUGU [G14C G25U]"
reported_result = 0.0786

[[record]]
sequence_chain = "GGGGGCCACAGCAGAAGCGUUCACGUCGCGGCCCCUCUCAGAUUCUGGUGAAUCCGCGAAUUCUGCUGU [G37C U55C]"
reported_result = 0.267

[[record]]
sequence_chain = "GGGGGCCACAGCAGAAUCGUUCACGUCGCGGCCCCUGACAGAUUCUGGUGAAUCUGCGAAUUCUGCUGU [G17U U38A]"
reported_result = 0.255

[[record]]
sequence_chain = "GGGGGCCACAACAGAAACGUUCACGUCGCGGCCCCUGUCAGAUUCUGGUGAAUCUGCGAAUUCUGCUGU [G11A G17A]"
reported_result = 0.119

[[record]]
sequence_chain = "GGGGGCCACAGCAGAAGCGUUCACGUCGCGGCCCCUGGCAGAUUCUGGGGAAUCUGCGAAUUCUGCUGU [U38G U49G]"
reported_result = 0.264

[[record]]
sequence_chain = "GGGGGCCACAGCAGAAGCUUUCACGUCGCGGCCCCUGUCAGUUUCUGGUGAAUCUGCGAAUUCUGCUGU [G19U A42U]"
reported_result = 0.327

[[record]]
sequence_chain = "GGGGGCCACAGGAGAAGCGUUCACGUCGCGGCCCCUAUCAGAUUCUGGUGAAUCUGCGAAUUCUGCUGU [C12G G37A]"
reported_result = 0.174

[[record]]
sequence_chain = "GGGGGCCACACCAGAAGCGUUCACGACGCGGCCCCUGUCAGAUUCUGGUGAAUCUGCGAAUUCUGCUGU [G11C U26A]"
reported_result = 0.387

[[record]]
sequence_chain = "GGGGGCCACAGCAGAAGCGUUGACGUCGCGGCCCCUGUCAGAUUCUCGUGAAUCUGCGAAUUCUGCUGU [C22G G47C]"
reported_result = 0.122

[[record]]
sequence_chain = "GGGGGCCACAGCAGAACCGUUCACGUCGCGGCCCCUGUCAGAUUCUGGUGAAUCUACGAAUUCUGCUGU [G17C G56A]"
reported_result = 0.103

[[record]]
sequence_chain = "GGGGGCCACAGCAGAAGCGUUCACGUCGCGGCCCCUGUCAGAUUCUGGUGACUCUGCGAAUUCUGCUGC [A52C U69C]"
reported_result = 1.05

[[record]]
sequence_chain = "GGGGGCCACAUCAGAAGCGGUCACGUCGCGGCCCCUGUCAGAUUCUGGUGAAUCUGCGAAUUCUGCUGU [G11U U20G]"
reported_result = 0.121

[[record]]
sequence_chain = "GGGGGCGACAGCAGAAGCGUUCACGUCGCGGCCCCUGUCAGAUUCUGGGGAAUCUGCGAAUUCUGCUGU [C7G U49G]"
reported_result = 0.469

[[record]]
sequence_chain = "GGGGGCCACAGCAGAAGAGUUCACGUCGCGGGCCCUGUCAGAUUCUGGUGAAUCUGCGAAUUCUGCUGU [C18A C32G]"
reported_result = 0.181

[[record]]
sequence_chain = "GGGGGCCACAGCAGAAGCGUUCACGUCGCGGCCCCUGUCAGAUUCUGGUGAAUCUGCGACUUCUGCCGU [A60C U67C]"
reported_result = 0.313

[[record]]
sequence_chain = "GGGGGCCACAGCAGAAGCGAUCACGUCGCGGCCCCUGUCAGAUUCUGGUGAAUCGGCGAAUUCUGCUGU [U20A U55G]"
reported_result = 0.112

[[record]]
sequence_chain = "GGGGGCCACAACAGAAGAGUUCACGUCGCGGCCCCUGUCAGAUUCUGGUGAAUCUGCGAAUUCUGCUGU [G11A C18A]"
reported_result = 0.107

[[record]]
sequence_chain = "GGGGGCCACAGCAGAAGCGUUCACGUCGCGGCCCCUGUCAAAAUCUGGUGAAUCUGCGAAUUCUGCUGU [G41A U43A]"
reported_result = 0.335

[[record]]
sequence_chain = "GAGGCCCACAGCAGAAGCGUUCACGUCGCGGCCCCUGUCAGAUUCUGGUGAAUCUGCGAAUUCUGCUGU [G2A G5C]"
reported_result = 0.122

[[record]]
sequence_chain = "GUGGGCCACAGCAGAAGCGUUCACGUCGCGGCCCCUGUCAGAUUCUGGUGAAUCUGCGAAUGCUGCUGU [G2U U62G]"
reported_result = 0.0547

